Reference source for all entries: the RepoRT retention time repository (doi:10.1016/j.foodchem.2021.129757)

Experiment: RP, Agilent ZORBAX RRHD Eclipse Plus C18, 50 × 2.1 mm, 1.8 µm, 30 °C, 0.4 mL/min, estimated dead time 0.28 min; A: water + 0.1% formic acid, pH 3; B: acetonitrile + 0.1% formic acid, pH 3; gradient (min/%B) 0/1 5/10 8/25 9.1/99 10/99 12/99
Conditions: stereoisomer not certain
observedProperty: LC retention time (min)

Past entries and their recorded results:
O=C(O)c1cc(O)c(O)c(O)c1 [Gallic acid] : 0.713
COc1cc(C=CC(=O)O)ccc1OS(=O)(=O)O [Ferulic acid 4-O-sulfate] : 4.67
O=C(O)Cc1cccc(O)c1 [3-hydroxyphenylacetic acid] : 4.67
O=C(O)C1OC(Oc2cc(O)c3c(=O)c(O)c(-c4ccc(O)c(O)c4)oc3c2)C(O)C(O)C1O (stereo not drawn) [Quercetin-7-O-glucuronide] : 8.38
COc1cc(CCC(=O)O)ccc1O [Dihydroferulic acid] : 4.07
Oc1cccc(O)c1 [Resorcinol] : 1.44

(P) COc1ccc(CCC(=O)O)cc1OC1OC(C(=O)O)C(O)C(O)C1O (stereo not drawn) [Dihydro isoferulic acid-3-O-glucuronide]
(Q) O=C(O)c1cccc(O)c1 [3-Hydroxybenzoic acid]
query: Response body: label of entry with the larger LC retention time; valid values P , Q . Answer by stating the label of the chosen item.
result: P

(P) O=C(O)c1ccc(O)c(O)c1 [Protocatechuic acid]
(Q) Oc1ccccc1O [Catechol]
query: Response body: label of entry with the larger LC retention time; valid values P , Q . Answer by stating the label of the chosen item.
result: Q
(Q: 3.97 min, P: 1.38 min)

(P) O=C(CCc1ccc(O)cc1)c1c(O)cc(O)cc1O [Phloretin]
(Q) O=Cc1ccc(O)c(O)c1 [3,4-Dihydroxybenzaldehyde]
query: Response body: label of entry with the larger LC retention time; valid values P , Q . Answer by stating the label of the chosen item.
result: P

(a) O=C(O)c1cc(O)ccc1O [Gentisic acid]
(b) O=C(O)C=Cc1ccc(O)cc1 [p-Coumaric acid]
query: // pick min by LC retention time: a , b Answer by stating the label of the chosen item.
result: a
(a: 2.82 min, b: 6.96 min)
